test system: Haemophilus influenzae; assay: Selectivity ratio of MBC for Haemophilus influenzae ATCC 49247 to MIC for Haemophilus influenzae ATCC 49247; format: functional
measurementType: Selectivity ratio
Numbers only.

Reference set, count: 2
lineNotation: CC[C@H]1OC(=O)[C@H](C)[C@@H](OC(=O)CCNCCCCNc2cc3c(cc2F)c(=O)c(C(=O)O)cn3C2CC2)[C@H](C)[C@@H](O[C@@H]2O[C@H](C)C[C@H](N(C)C)[C@H]2O)[C@](C)(OC)C[C@@H](C)/C(=N\OCC#Cc2cncc(NC(C)=O)c2)[C@H](C)[C@H]2OC(=O)O[C@@]21C
systemUnderTest: Haemophilus influenzae
Selectivity ratio: 1
//
lineNotation: CC[C@H]1OC(=O)[C@H](C)[C@@H](OC(=O)CCN2CCN(c3cc4c(cc3F)c(=O)c(C(=O)O)cn4C3CC3)CC2)[C@H](C)[C@@H](O[C@@H]2O[C@H](C)C[C@H](N(C)C)[C@H]2O)[C@](C)(OC)C[C@@H](C)/C(=N\OCC#Cc2cncc(C(N)=O)c2)[C@H](C)[C@H]2OC(=O)O[C@@]21C
systemUnderTest: Haemophilus influenzae
Selectivity ratio: 1

Continue with the next molecule.
Specify Selectivity ratio for CC[C@H]1OC(=O)[C@H](C)[C@@H](OC(=O)NCCCc2ccc3c(c2)c(=O)c(C(=O)O)cn3C2CC2)[C@H](C)[C@@H](O[C@@H]2O[C@H](C)C[C@H](N(C)C)[C@H]2O)[C@](C)(OC)C[C@@H](C)/C(=N\OC)[C@H](C)[C@H]2OC(=O)O[C@@]21C and stop.
1

* * *

assay: Metabolic stability in rat liver microsomes assessed as unchanged drug at 1 uM incubated upto 60 mins in presence of NADPH by LC-MS/MS analysis; type: ADME, Microsome; details: read-out: Stability
Answer each item with its documented remaining at 1 h, 1 µM.

lineNotation: CCOc1ccc2ccc(=O)oc2c1
measurementType: remaining at 1 h, 1 µM
valueReported: 1%

lineNotation: CC[C@H]1OC(=O)[C@H](C)[C@@H](OC(=O)CCNCCCCCNc2cc3c(cc2F)c(=O)c(C(=O)O)cn3C2CC2)[C@H](C)[C@@H](O[C@@H]2O[C@H](C)C[C@H](N(C)C)[C@H]2O)[C@](C)(OC)C[C@@H](C)/C(=N\OC)[C@H](C)[C@H]2OC(=O)O[C@@]21C
measurementType: remaining at 1 h, 1 µM
valueReported: 98.4%

Continue with the next molecule.
Specify remaining at 1 h, 1 µM for CC[C@H]1OC(=O)[C@H](C)[C@@H](OC(=O)CCNCCCCNc2cc3c(cc2F)c(=O)c(C(=O)O)cn3C2CC2)[C@H](C)[C@@H](O[C@@H]2O[C@H](C)C[C@H](N(C)C)[C@H]2O)[C@](C)(OC)C[C@@H](C)/C(=N\OCC#Cc2cncc(C(=O)NC)c2)[C@H](C)[C@H]2OC(=O)O[C@@]21C and stop.
70.6%

* * *

system: Streptococcus pneumoniae; assay: Antibacterial activity against Streptococcus pneumoniae ATCC 49619 incubated for 16 to 20 hrs by CLSI based broth microdilution method; type: functional; conditions: time 16-20 hrs
measurementType: MIC

Reference set, count: 2
molecule: CC[C@H]1OC(=O)[C@H](C)[C@@H](OC(=O)CCNCCCCNc2cc3c(cc2F)c(=O)c(C(=O)O)cn3C2CC2)[C@H](C)[C@@H](O[C@@H]2O[C@H](C)C[C@H](N(C)C)[C@H]2O)[C@](C)(OC)C[C@@H](C)/C(=N\OCC#Cc2ccc3c(c2)c(=O)c(C(N)=O)cn3CC)[C@H](C)[C@H]2OC(=O)O[C@@]21C
MIC: 0.12 µg/mL
--
molecule: CC[C@H]1OC(=O)[C@H](C)[C@@H](OC(=O)CCN2CCN(c3c(F)cc4c(=O)c(C(=O)O)cn(C5CC5)c4c3OC)CC2C)[C@H](C)[C@@H](O[C@@H]2O[C@H](C)C[C@H](N(C)C)[C@H]2O)[C@](C)(OC)C[C@@H](C)/C(=N\OCC#Cc2cncc(C(=O)NC)c2)[C@H](C)[C@H]2OC(=O)O[C@@]21C (stereo partly drawn)
MIC: 0.5 µg/mL

Specify MIC for CC[C@H]1OC(=O)[C@H](C)[C@@H](OC(=O)CCN2CCN(c3cc4c(cc3F)c(=O)c(C(=O)O)cn4C3CC3)CC2)[C@H](C)[C@@H](O[C@@H]2O[C@H](C)C[C@H](N(C)C)[C@H]2O)[C@](C)(OC)C[C@@H](C)/C(=N\OC)[C@H](C)[C@H]2OC(=O)O[C@@]21C and stop.
0.25 µg/mL
